TEST_TARGET: Nuclear receptor ROR-gamma (Homo sapiens) (UniProt P51449)
Sequence (P51449 whole entry, the tested form may be a part): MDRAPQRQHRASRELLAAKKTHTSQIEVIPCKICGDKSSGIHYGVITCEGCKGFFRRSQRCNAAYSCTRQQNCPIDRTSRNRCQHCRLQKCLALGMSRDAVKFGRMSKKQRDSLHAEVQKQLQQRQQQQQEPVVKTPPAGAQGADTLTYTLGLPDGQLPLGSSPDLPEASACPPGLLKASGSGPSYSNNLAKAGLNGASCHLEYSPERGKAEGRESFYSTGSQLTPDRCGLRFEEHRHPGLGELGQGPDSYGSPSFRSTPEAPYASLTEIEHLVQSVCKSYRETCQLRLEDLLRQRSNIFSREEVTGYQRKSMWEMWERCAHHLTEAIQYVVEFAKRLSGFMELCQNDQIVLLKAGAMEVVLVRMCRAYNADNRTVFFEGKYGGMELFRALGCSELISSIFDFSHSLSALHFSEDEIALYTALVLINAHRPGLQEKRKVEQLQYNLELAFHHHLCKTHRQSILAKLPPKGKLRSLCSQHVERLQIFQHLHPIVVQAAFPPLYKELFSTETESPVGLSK
ASSAY_NOTES: Inverse agonist activity at Gal4-fused RORgammat LBD (unknown origin) expressed in HEK293 cells measured after 48 hrs post transfection by dual-luciferase reporter gene assay
Assay type: cell-based

[
  {
    "COMPOUND": "C[C@]12CC[C@@H]3c4cc(-c5cccc6c5oc5ccccc56)c(O)cc4CC[C@H]3[C@@H]1CC(C(=O)O)C2O (some centres undefined)",
    "Activity": "Dose-dependent effect"
  },
  {
    "COMPOUND": "C[C@@]12C=C(C(=O)O)C[C@H]1[C@@H]1CCc3cc(O)c(C(=O)c4ccccc4)cc3[C@H]1CC2",
    "Activity": "Dose-dependent effect"
  },
  {
    "COMPOUND": "COc1cc2c(cc1C13CC4CC(CC(C4)C1)C3)[C@H]1CC[C@]3(C)C=C(C(=O)O)C[C@H]3[C@@H]1CC2",
    "Activity": "Dose-dependent effect"
  },
  {
    "COMPOUND": "C[C@@]12C=C(C(=O)O)C[C@H]1[C@@H]1CCc3cc(O)c(C45CC6CC(CC(C6)C4)C5)cc3[C@H]1CC2",
    "Activity": "Dose-dependent effect"
  }
]

----------
TEST_TARGET: Nuclear receptor ROR-gamma (Homo sapiens)
Sequence (P51449 whole entry, the tested form may be a part): as above
ASSAY_NOTES: Inverse agonist activity at Gal4-fused RORgammat LBD (unknown origin) expressed in HEK293 cells measured after 48 hrs post transfection by dual-luciferase reporter gene assay
pIC50: −log10 of the molar value.

[
  {
    "COMPOUND": "COc1cc2c(cc1C13CC4CC(CC(C4)C1)C3)[C@H]1CC[C@]3(C)C=C(C(=O)O)C[C@H]3[C@@H]1CC2",
    "pIC50": 5.17
  },
  {
    "COMPOUND": "C[C@@]12C=C(C(=O)O)C[C@H]1[C@@H]1CCc3cc(O)c(C(=O)c4ccccc4)cc3[C@H]1CC2",
    "pIC50": 5.36
  },
  {
    "COMPOUND": "C[C@@]12C=C(C(=O)O)C[C@H]1[C@@H]1CCc3cc(O)c(C45CC6CC(CC(C6)C4)C5)cc3[C@H]1CC2",
    "pIC50": 5.19
  },
  {
    "COMPOUND": "C[C@]12CC[C@@H]3c4cc(-c5cccc6c5oc5ccccc56)c(O)cc4CC[C@H]3[C@@H]1CC(C(=O)O)C2O (some centres undefined)",
    "pIC50": 5.33
  }
]
